As shown below, each of these compounds has a reported half-life at 1 μM value.
test name: Microsome stability assay, mouse liver microsomes
Format: in vitro ADME
assay context: mouse, mouse liver microsomes, pooled; 1 μM compound, 0.5 mg/mL microsomal protein, NADPH, 37° C.; read-out: Microsome Stability Mouse liver microsomes T½

Cc1ccc2c(c1)Oc1cc(Cl)ccc1C2NC(=O)c1ccc(C(F)(F)F)[nH]c1=O (stereo not shown) [Compound 138] | > 2.42 h
Cc1ccc2c(c1)[C@@H](O)CC[C@H]2NC(=O)c1ccc(C(F)(F)F)[nH]c1=O [Compound 312] | > 2.42 h
COc1ccc2c(c1)CC(OC)C2NC(=O)c1ccc(C(F)(F)F)[nH]c1=O (stereo not shown) [Compound 352] | > 2.42 h
O=C(Nc1cccc2c(O)cccc12)c1ccc(C(F)(F)F)[nH]c1=O [Compound 223] | > 2.42 h
CC[C@@H]1C[C@H](NC(=O)c2ccc(C(F)(F)F)[nH]c2=O)c2ccc(C)cc2N1 [Compound 366] | > 2.42 h

Prompt: Look up half-life at 1 μM for this compound: Nc1cccc2c(NC(=O)c3ccc(C(F)(F)F)[nH]c3=O)cccc12 [Compound 228]
Response: > 2.42 h

Prompt: I'd like to know its half-life at 1 μM. The compound in question is Cc1ccc2c(c1)Oc1cc(C)ccc1C2NC(=O)c1cc(OC2CCOCC2)c(C(F)(F)F)[nH]c1=O [Compound 260]
Response: > 2.42 h

Prompt: // returns reported half-life at 1 μM for input CCC[C@H]1Oc2cc(C)ccc2[C@@H]1NC(=O)c1ccc(C(F)(F)F)[nH]c1=O [Compound 358]
Response: 0.15 h

Prompt: Consider the compound CCC[C@@H]1C[C@@H](NC(=O)c2ccc(C(F)(F)F)[nH]c2=O)c2cc(C)ccc2N1 [Compound 361] and give its measured half-life at 1 μM.
Response: 1.2 h

Prompt: What value of half-life at 1 μM has been recorded for this entry: Cc1ccc2c(c1)Oc1cc(C)ccc1C2NC(=O)c1ccc(C(F)(F)F)[nH]c1=O [Compound 52]
Response: > 2.42 h

Prompt: Entry under review: CCC[C@H]1C[C@@H](NC(=O)c2ccc(C(F)(F)F)[nH]c2=O)c2cc(C)ccc2N1 [Compound 362] . Reported half-life at 1 μM?
Response: 1.9 h

Prompt: Entry under review: CCC1CCc2cc(O)ccc2C1NC(=O)c1ccc(C(F)(F)F)[nH]c1=O (stereo not shown) [Compound 284] . Reported half-life at 1 μM?
Response: > 2.42 h

Prompt: Consider the compound O=C(NC1c2ccc(Cl)cc2Oc2cc(Cl)ccc21)c1ccc(C(F)(F)F)[nH]c1=O [Compound 50] and give its measured half-life at 1 μM.
Response: > 2.42 h

* * *

The listing below reports IC50 for compounds tested on HSD17B2 (Homo sapiens (Human)).
Sequence (P37059 other isoform, or with tags, fused parts or gaps): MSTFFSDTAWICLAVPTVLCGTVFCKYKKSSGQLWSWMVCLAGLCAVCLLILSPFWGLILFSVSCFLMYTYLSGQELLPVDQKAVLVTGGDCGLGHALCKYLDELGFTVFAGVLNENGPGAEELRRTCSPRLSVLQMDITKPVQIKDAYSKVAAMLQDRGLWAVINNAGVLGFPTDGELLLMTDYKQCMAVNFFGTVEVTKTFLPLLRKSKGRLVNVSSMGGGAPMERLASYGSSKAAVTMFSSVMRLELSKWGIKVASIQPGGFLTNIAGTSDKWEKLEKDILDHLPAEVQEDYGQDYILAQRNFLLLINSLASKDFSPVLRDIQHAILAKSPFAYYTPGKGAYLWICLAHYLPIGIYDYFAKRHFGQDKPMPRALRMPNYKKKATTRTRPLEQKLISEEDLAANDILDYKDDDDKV
property measured: IC50 (µM)

Solved entries (count: 9):
CCC[C@@H]1Oc2ccc(C)cc2[C@@H]1NC(=O)c1ccc(C(F)(F)F)[nH]c1=O [Compound 354] | 29.3
Cc1ccc2c(c1)Oc1cc(C)ccc1C2NC(=O)c1cc(CCc2ccccc2)c(C(F)(F)F)[nH]c1=O [Compound 520] | 25.3
CCc1ccc2c(c1)Oc1ccccc1C2NC(=O)c1ccc(C(F)(F)F)[nH]c1=O (centres unmarked) [Compound 140] | 10.7
Cc1ccc2c(c1)OCCC2NC(=O)c1ccc(C(F)(F)F)[nH]c1=O (centres unmarked) [Compound 441] | 11.2
CCC1Cc2cc(C)ccc2C(NC(=O)c2ccc(C(F)(F)F)[nH]c2=O)C1 (centres unmarked) [Compound 388] | 25.8
Cc1ccc2c(c1)-c1cc(C)ccc1C2NC(=O)c1ccc(C(F)(F)F)[nH]c1=O [Compound 43] | 6.59
Cc1cccc(C(NC(=O)c2ccc(C(F)(F)F)[nH]c2=O)c2ccccc2)c1 (centres unmarked) [Compound 490] | 16.1
Cc1ccc2c(c1)Sc1cc(C)ccc1C2NC(=O)c1cc(-c2ccccc2)c(C(F)(F)F)[nH]c1=O [Compound 306] | 17.3
CCCc1cc(C(=O)NC2c3ccc(C)cc3Oc3cc(C)ccc32)c(=O)[nH]c1C(F)(F)F [Compound 521] | 29.2

[P] CCC1Oc2ccc(C)cc2C1NC(=O)c1ccc(C(F)(F)F)[nH]c1=O (centres unmarked) [Compound 355]
[Q] O=C(NC(c1ccccc1)c1ccc(C(F)(F)F)cc1)c1ccc(C(F)(F)F)[nH]c1=O (centres unmarked) [Compound 28]
[R] Cc1cnc2c(c1)Oc1ccccc1C2NC(=O)c1ccc(C(F)(F)F)[nH]c1=O (centres unmarked) [Compound 324]
Prompt: Sort by IC50, descending. The reply should contain the labels ordered as requested.
Response: R, P, Q
(R: 56.4 µM, P: 37.6 µM, Q: 12.6 µM)
